Below are Ki measurements against Progesterone receptor (Homo sapiens) drawn from the literature.
Just the number please, in nM, no unit attached.

# Molecule, Target or test system, Recorded value
measured = [
    ("CC1=CC(C)(C)Nc2ccc3c(c21)C(Cc1ccccc1)Oc1ccccc1-3 (stereo not drawn)", "Progesterone receptor (Homo sapiens)", 2.1),
    ("C#C[C@]1(O)CC[C@H]2[C@@H]3CCC4=CC(=O)CCC4=C3[C@@H](c3ccc(N(C)CCOC4CC[C@@]5(C)[C@@H](C4)C[C@@H](O)[C@@H]4[C@@H]5C[C@H](O)[C@]5(C)[C@@H]([C@H](C)CCC(=O)NCC(=O)O)CC[C@@H]45)cc3)C[C@@]21C (stereo partly drawn)", "Progesterone receptor (Homo sapiens)", 1),
]

Here is another molecule to look at.
# get_value(readout= Ki, system= Progesterone receptor (Homo sapiens)) for "COc1ccc(F)cc1-c1c(-c2ccccc2)[nH]c2c(NS(C)(=O)=O)cccc12"
44.2

----------
Below are pKi measurements against Progesterone receptor (Homo sapiens, UniProt P06401) drawn from the literature.
pKi: −log10 of the molar value.
// no (0) strictly below 8 in pKi; yes (1) otherwise

Examples with answers:
# Compound, Target or test system, Class label
rows = [
    ("C=C1C=C(C)CC(C)(C)C1Cc1ccc([N+](=O)[O-])c(C)c1 (configuration not stated)", "Progesterone receptor (Homo sapiens, UniProt P06401)", "no (0)"),
    ("CC(C)(C(=O)Nc1nncs1)[C@@H](c1ccccc1)c1ccc(O)c(F)c1", "Progesterone receptor (Homo sapiens, UniProt P06401)", "no (0)"),
    ("C=C1C=C(C)C[C@@H](C)[C@@H]1Cc1cc(OC)c(Br)cc1OC(C)=O", "Progesterone receptor (Homo sapiens, UniProt P06401)", "no (0)"),
    ("C#C[C@]1(O)CC[C@H]2[C@@H]3CCC4=CC(=O)CCC4=C3[C@@H](c3ccc(N(C)CCCC(=O)N(C)C4CC[C@@]5(C)[C@@H](C4)C[C@@H](O)[C@@H]4[C@@H]5C[C@H](O)[C@]5(C)[C@@H]([C@H](C)CCC(=O)O)CC[C@@H]45)cc3)C[C@@]21C (some centres not stated)", "Progesterone receptor (Homo sapiens, UniProt P06401)", "yes (1)"),
    ("O=[N+]([O-])c1cccc(-c2ccc3c(c2)nc(O)n3Cc2ccccc2)c1", "Progesterone receptor (Homo sapiens, UniProt P06401)", "no (0)"),
]

# check: pKi of "COc1cc(F)ccc1-c1c(CN(C)Cc2ccccc2)[nH]c2c(NS(C)(=O)=O)cc(C(C)C)cc12" is greater than or equal to 8
no (0)

----------
Below are Ki measurements against Progesterone receptor (Homo sapiens) drawn from the literature.
Molecular target: Progesterone receptor (Homo sapiens)
Sequence (P06401 whole entry): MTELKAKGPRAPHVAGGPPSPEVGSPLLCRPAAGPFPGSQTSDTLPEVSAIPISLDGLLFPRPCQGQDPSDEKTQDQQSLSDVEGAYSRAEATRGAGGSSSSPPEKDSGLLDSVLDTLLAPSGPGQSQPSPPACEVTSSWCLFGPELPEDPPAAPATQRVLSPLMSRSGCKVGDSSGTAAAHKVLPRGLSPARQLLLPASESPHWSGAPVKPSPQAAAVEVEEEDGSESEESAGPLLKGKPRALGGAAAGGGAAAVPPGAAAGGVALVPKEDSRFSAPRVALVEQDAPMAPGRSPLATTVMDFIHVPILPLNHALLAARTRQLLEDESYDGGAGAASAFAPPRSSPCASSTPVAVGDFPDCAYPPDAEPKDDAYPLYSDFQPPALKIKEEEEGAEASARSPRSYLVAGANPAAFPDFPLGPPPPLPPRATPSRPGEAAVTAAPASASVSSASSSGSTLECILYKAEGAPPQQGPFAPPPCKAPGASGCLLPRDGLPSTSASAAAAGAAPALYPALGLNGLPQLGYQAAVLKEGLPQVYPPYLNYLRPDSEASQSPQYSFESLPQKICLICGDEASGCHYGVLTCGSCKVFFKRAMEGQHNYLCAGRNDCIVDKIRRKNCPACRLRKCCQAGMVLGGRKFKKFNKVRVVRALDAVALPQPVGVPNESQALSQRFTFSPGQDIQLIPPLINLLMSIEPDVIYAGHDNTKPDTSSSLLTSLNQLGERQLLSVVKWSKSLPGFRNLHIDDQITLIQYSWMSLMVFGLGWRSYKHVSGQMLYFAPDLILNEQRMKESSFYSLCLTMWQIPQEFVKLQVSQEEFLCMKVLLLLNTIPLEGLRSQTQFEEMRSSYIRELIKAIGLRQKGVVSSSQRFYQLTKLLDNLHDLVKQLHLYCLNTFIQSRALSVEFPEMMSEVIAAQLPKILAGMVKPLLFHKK
Please note: Ki exactly at 30 nM is NO. Only values below 30 nM get YES.

Examples with answers:
# Compound, Class label
rows = [
    ("CC(C)(C)NC(=O)NCC(C)(C)[C@@H](c1ccccc1)c1ccc2c(cnn2-c2ccc(F)cc2)c1", "NO"),
    ("Sc1nc2ccc(-n3ccnc3)cc2n1C1CCCC1", "YES"),
    ("CC(c1ccc(F)cc1)(c1c[nH]c2c(NS(C)(=O)=O)cccc12)C1CC1 (stereo not given)", "NO"),
    ("COc1cc(NS(C)(=O)=O)c2[nH]c(C)c(-c3ccccc3)c2c1", "NO"),
]

Quick check: Ki of Cc1cnc(NC(=O)C2(C)CC3c4ccccc4C2c2ccccc23)s1 (single isomer, unassigned; isomer A) under 30 nM?
NO

Quick check: Ki of "C#C[C@]1(O)CC[C@H]2[C@@H]3CCC4=CC(=O)CCC4=C3[C@@H](c3ccc(N(C)CCC[C@H]4[C@H](O)CC[C@@]5(C)[C@@H]4C[C@@H](O)[C@@H]4[C@@H]5C[C@H](O)[C@]5(C)[C@@H]([C@H](C)CCC(=O)O)CC[C@@H]45)cc3)C[C@@]21C" under 30 nM?
YES

Quick check: Ki of C#C[C@]1(O)CC[C@H]2[C@@H]3CCC4=CC(=O)CCC4=C3[C@@H](c3ccc(N(C)CCCS(=O)(=O)N(C)C4CC[C@@]5(C)[C@@H](C4)C[C@@H](O)[C@@H]4[C@@H]5C[C@H](O)[C@]5(C)[C@@H]([C@H](C)CCC(=O)O)CC[C@@H]45)cc3)C[C@@]21C (stereo not given in full) under 30 nM?
YES

Quick check: Ki of "CC1=CC(C)(C)Nc2ccc(-c3sc(C#N)cc3Br)cc21" under 30 nM?
NO

----------
Below are pKi measurements against UniProt P06401 drawn from the literature.
In simple prose, pKi is minus the logarithm base ten of a concentration in moles per litre.

I would be grateful if you could share the reported pKi for "CC1=CC(C)(C)Nc2cc3c(cc21)-c1ccc([N+](=O)[O-])cc1C3" .
8.44

I would be grateful if you could share the reported pKi for "CN(C)C(=O)c1ccc(-c2ccc3c(n2)Oc2ccccc2[C@@H]3C(C)(C)C(=O)Nc2nncs2)cc1" .
5.91

I would be grateful if you could share the reported pKi for C[C@H]1c2c(cc(F)c(-c3cccc4c(Cl)c[nH]c34)c2F)NC(C)(C)[C@@H]1OC(=O)NC1CCCCC1 (racemic) .
7.03

I would be grateful if you could share the reported pKi for "C[C@@H]1C(=O)C(C)(C)Nc2ccc3c(c21)[C@H](c1ccccc1)Oc1ccccc1-3" .
8.18

----------
Below are log10(Ki) measurements against Progesterone receptor (Homo sapiens) drawn from the literature.
Target: Progesterone receptor (Homo sapiens)
Sequence (P06401 whole entry): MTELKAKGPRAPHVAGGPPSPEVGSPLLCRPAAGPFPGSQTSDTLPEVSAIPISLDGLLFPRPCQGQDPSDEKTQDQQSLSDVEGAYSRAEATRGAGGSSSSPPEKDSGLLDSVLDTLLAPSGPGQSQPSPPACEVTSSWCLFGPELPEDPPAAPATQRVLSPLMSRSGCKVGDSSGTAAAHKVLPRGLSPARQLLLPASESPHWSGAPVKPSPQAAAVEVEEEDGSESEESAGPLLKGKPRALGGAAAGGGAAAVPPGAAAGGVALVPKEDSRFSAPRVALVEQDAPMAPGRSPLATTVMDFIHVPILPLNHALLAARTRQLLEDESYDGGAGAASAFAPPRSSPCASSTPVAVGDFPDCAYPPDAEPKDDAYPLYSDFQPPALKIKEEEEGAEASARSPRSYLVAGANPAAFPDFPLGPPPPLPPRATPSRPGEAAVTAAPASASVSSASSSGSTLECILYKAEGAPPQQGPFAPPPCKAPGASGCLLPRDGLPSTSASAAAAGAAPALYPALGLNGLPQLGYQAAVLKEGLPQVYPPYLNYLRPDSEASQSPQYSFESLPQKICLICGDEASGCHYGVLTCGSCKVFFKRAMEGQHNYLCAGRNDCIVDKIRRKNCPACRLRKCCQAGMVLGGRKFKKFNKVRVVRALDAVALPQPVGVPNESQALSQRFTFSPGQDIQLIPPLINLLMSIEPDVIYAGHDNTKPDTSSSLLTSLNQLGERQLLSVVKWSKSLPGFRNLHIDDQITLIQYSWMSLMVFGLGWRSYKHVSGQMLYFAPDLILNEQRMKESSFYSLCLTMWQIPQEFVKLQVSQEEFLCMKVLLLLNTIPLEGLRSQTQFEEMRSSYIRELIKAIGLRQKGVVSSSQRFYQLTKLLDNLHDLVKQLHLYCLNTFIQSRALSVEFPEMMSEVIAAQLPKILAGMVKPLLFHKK
Response schema: value (number) is log10 of Ki in units of nM.

# Compound, Target or test system, log10(Ki)
rows = [
    ("CC1=CC(C)(C)Nc2ccc(-c3ccc(Cl)s3)cc21", "Progesterone receptor (Homo sapiens)", 1.08),
    ("CC1=CC(C)(C)Nc2ccc3c(c21)C(c1ccccc1)Oc1ccc(Cl)cc1-3 (centres undefined)", "Progesterone receptor (Homo sapiens)", 1.72),
    ("CC(C(=O)Nc1nncs1)[C@@H](c1ccccc1)c1ccc2c(cnn2-c2ccc(F)cc2)c1 (single isomer, unassigned; diastereomer 2)", "Progesterone receptor (Homo sapiens)", 2.33),
    ("CC1(C)C=Cc2c(ccc3c2C(c2ccc(Cl)cc2)Oc2ccccc2-3)N1 (centres undefined)", "Progesterone receptor (Homo sapiens)", 1.02),
    ("CC(C)Oc1ccc(-c2ccc3c(n2)Oc2c(F)cccc2[C@@H]3C(C)(C)C(=O)NC(N)=O)cn1", "Progesterone receptor (Homo sapiens)", 2.50),
]

I would be grateful if you could share the reported log10(Ki) for "C=C1C[C@H](C)C[C@@H](C)[C@@H]1Cc1cc(OC)c(Br)cc1O" .
1.92

I would be grateful if you could share the reported log10(Ki) for CC1=CC(C)(C)Nc2cc3c(cc21)-c1cc(F)cc(F)c1C3O (centres undefined) .
2.31

I would be grateful if you could share the reported log10(Ki) for "CC(C)n1cc(-c2ccc(C#N)cc2)c2ccc(NS(C)(=O)=O)cc21" .
-0.10
